Tested on: hrMAO-A (Homo sapiens)
Construct: purchased XenoTech Lot #8213001
Sequence (P21397 whole entry): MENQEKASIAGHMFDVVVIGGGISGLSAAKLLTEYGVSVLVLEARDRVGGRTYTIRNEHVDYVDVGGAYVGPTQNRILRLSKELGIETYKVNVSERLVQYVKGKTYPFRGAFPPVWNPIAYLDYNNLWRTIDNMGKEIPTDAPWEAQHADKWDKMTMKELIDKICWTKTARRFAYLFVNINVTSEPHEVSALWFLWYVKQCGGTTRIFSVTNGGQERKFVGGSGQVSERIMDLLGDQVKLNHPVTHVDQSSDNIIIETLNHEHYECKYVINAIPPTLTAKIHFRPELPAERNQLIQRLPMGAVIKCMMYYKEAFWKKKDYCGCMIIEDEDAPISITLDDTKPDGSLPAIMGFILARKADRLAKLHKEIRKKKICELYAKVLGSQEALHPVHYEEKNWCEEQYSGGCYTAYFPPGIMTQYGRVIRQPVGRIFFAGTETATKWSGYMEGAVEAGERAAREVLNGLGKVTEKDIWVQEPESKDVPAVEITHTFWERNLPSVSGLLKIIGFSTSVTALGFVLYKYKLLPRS
Experiment summary: Metabolic stability in the presence of hrMAO-A
Assay type: in vitro ADME
Test settings: MAO-A; last assay time point 120 min
Measurement label: MAO (metabolized or not)

1) CCNCCc1c[nH]c2ccccc12 [reference compound]: R
2) CN(C)CCc1c[nH]c2ccc(O)cc12 [reference compound]: R
3) CCN(C)CCc1c[nH]c2cccc(OC)c12 [reference compound]: R
4) CCN(C)CCc1c[nH]c2ccc(OC)cc12 [reference compound]: R
5) COc1ccc2[nH]cc(CCN(C)C)c2c1 [5-MeO-DMT, reference compound]: R
6) CNCCc1c[nH]c2cccc(O)c12 [reference compound]: R
7) CCN(C)CCc1c[nH]c2ccc(O)cc12 [reference compound]: R
8) CNCCc1c[nH]c2ccccc12 [reference compound]: R

Items follow; give MAO (metabolized or not) for each.
1. CCN(C)CCc1c[nH]c2ccccc12 [reference compound]
2. COc1cccc2[nH]cc(CCN(C)C)c12 [reference compound]

R
R
